QUANTITY MEASURED: melting point

> print(dat)
                                   compound  recorded.result
1  CC(C)c1ccccc1NC(=S)N/N=C/c1ccc(-c2ncn(-c3ccc(OC(F)(F)C(F)(F)F)cc3)n2)cc1 [Compound I-33]    214 to 216 °C
2  CC(C)c1c(F)cccc1NC(=S)NN [Compound I-51]    158 to 160 °C
3  CC(F)(F)c1ccc(-n2cnc(-c3ccc(C=O)cc3)n2)cc1 [Compound I-62]    139 to 141 °C
4  CC(C)c1ccccc1NC(=S)N/N=C/c1ccc(-c2ncn(-c3ccc4c(c3)OC(F)(F)O4)n2)cc1 [Compound I-36]    200 °C (dec.)
5  CC(C)c1ccc(F)cc1NC(=S)NN [Compound I-43]    133 to 135 °C
6  CC(C)c1cc(F)ccc1NC(=S)NN [Compound I-47]    163 to 217 °C

* * *

Each record here notes measured pest or weed control at 50 µg/cm2, 50 µg/cm2.
Test system: Beet Armyworm (BAW) (Spodoptera exigua)
Assay: Bioassay on beet armyworm (BAW), 128-well diet tray assay
Assay type: in vivo
Settings: Spodoptera exigua; Beet armyworm, 50 μg/cm^2; read-out: % Mortality BAW 50 μg/cm^2
QUANTITY MEASURED: pest or weed control at 50 µg/cm2, 50 µg/cm2

> print(dat)
                                   compound                              system.name  recorded.result
1  CC(C)Cc1ccccc1N1C(=O)CS/C1=N\N=C\c1ccc(-c2ncn(-c3ccc(OC(F)(F)F)cc3)n2)cc1 [Compound 119C]  Beet Armyworm (BAW) (Spodoptera exigua)       50 to 100%
2  CC(C)c1ccccc1N1CS/C1=N\N=C\c1ccc(-c2ncn(-c3ccc(OC(F)(F)C(F)(F)F)cc3)n2)cc1 [Compound 247C]  Beet Armyworm (BAW) (Spodoptera exigua)       50 to 100%
3  FC(F)(F)Oc1ccc(-n2cnc(-c3ccc(/C=N/N=C4\SCCN4c4c(Cl)cccc4C(F)(F)F)cc3)n2)cc1 [Compound 149C]  Beet Armyworm (BAW) (Spodoptera exigua)       50 to 100%
4  CCC(C)c1ccccc1N1CCS/C1=N\N=C\c1ccc(-c2ncn(-c3ccc(OC(F)(F)F)cc3)n2)cc1 (stereo not shown) [Compound 135C]  Beet Armyworm (BAW) (Spodoptera exigua)       50 to 100%
5  CC1CS/C(=N\N=C\c2ccc(-c3ncn(-c4ccc(OC(F)(F)F)cc4)n3)cc2)N(c2ccccc2OC(F)(F)F)C1 (stereo not shown) [Compound 214C]  Beet Armyworm (BAW) (Spodoptera exigua)       50 to 100%
6  CC(C)c1ccc(F)cc1N1CS/C1=N\N=C\c1ccc(-c2ncn(-c3ccc(C(F)(C(F)(F)F)C(F)(F)F)cc3)n2)cc1 [Compound 257C]  Beet Armyworm (BAW) (Spodoptera exigua)       50 to 100%
7  CCC1CS/C(=N\N=C\c2ccc(-c3ncn(-c4ccc(OC(F)(F)F)cc4)n3)cc2)N1c1ccccc1C (stereo not shown) [Compound 166C]  Beet Armyworm (BAW) (Spodoptera exigua)       50 to 100%

* * *

Each record here notes measured pest or weed control at 50 µg/cm2, 50 µg/cm2.
Tested on: Beet Armyworm (BAW) (Spodoptera exigua)
Test: Bioassay on beet armyworm (BAW), 128-well diet tray assay
Type: in vivo
Conditions: Spodoptera exigua; Beet armyworm, 50 μg/cm^2; read-out: % Mortality BAW 50 μg/cm^2
QUANTITY MEASURED: pest or weed control at 50 µg/cm2, 50 µg/cm2

> print(dat)
                                    compound                              system.name  recorded.result
 1  C/C(=N\N=C1/SCC(=O)N1c1ccccc1C(C)C)c1ccc(-c2ncn(-c3ccc(OC(F)(F)F)cc3)n2)cc1 [Compound 122C]  Beet Armyworm (BAW) (Spodoptera exigua)       50 to 100%
 2  CCc1ccccc1N1CS/C1=N\N=C\c1ccc(-c2ncn(-c3ccc(OC(F)(F)F)cc3)n2)cc1 [Compound 254C]  Beet Armyworm (BAW) (Spodoptera exigua)       50 to 100%
 3  COCOCC(C)C(=O)OCS/C(=N\c1c(C)cccc1C)N/N=C/c1ccc(-c2ncn(-c3ccc(OC(F)(F)F)cc3)n2)cc1 (stereo not shown) [Compound 41C]  Beet Armyworm (BAW) (Spodoptera exigua)       50 to 100%
 4  COc1cc(C)c(/N=C(/N/N=C/c2ccc(-c3ncn(-c4ccc(OC(F)(F)F)cc4)n3)cc2)SCOC(=O)CNC(=O)OCc2ccccc2)c(C)c1 [Compound 28C]  Beet Armyworm (BAW) (Spodoptera exigua)       50 to 100%
 5  Cc1cccc(C)c1/N=C(/N/N=C/c1ccc(-c2ncn(-c3ccc(OC(F)(F)F)cc3)n2)cc1)SCC(=O)NCCCN(C)C(=O)OC(C)(C)C [Compound 61C]  Beet Armyworm (BAW) (Spodoptera exigua)       50 to 100%
 6  CCOc1cccc(OCC)c1N1C(=O)CS/C1=N\N=C\c1ccc(-c2ncn(-c3ccc(OC(F)(F)F)cc3)n2)cc1 [Compound 98C]  Beet Armyworm (BAW) (Spodoptera exigua)       50 to 100%
 7  Cc1ccccc1N1/C(=N/N=C/c2ccc(-c3ncn(-c4ccc(OC(F)(F)F)cc4)n3)cc2)SCC1C (stereo not shown) [Compound 154C]  Beet Armyworm (BAW) (Spodoptera exigua)       50 to 100%
 8  COCOCC(C)C(=O)OCS/C(=N\c1c(C)cc(OC)cc1C)N/N=C/c1ccc(-c2ncn(-c3ccc(OC(F)(F)F)cc3)n2)cc1 (stereo not shown) [Compound 42C]  Beet Armyworm (BAW) (Spodoptera exigua)       50 to 100%
 9  COc1cc(C)c(/N=C(/N/N=C/c2ccc(-c3ncn(-c4ccc(OC(F)(F)F)cc4)n3)cc2)SCOC(=O)C2CCCO2)c(C)c1 (stereo not shown) [Compound 44C]  Beet Armyworm (BAW) (Spodoptera exigua)       50 to 100%
10  CC1S/C(=N\N=C\c2ccc(-c3ncn(-c4ccc(OC(F)(F)F)cc4)n3)cc2)N(c2c(Cl)cccc2Cl)C1=O (stereo not shown) [Compound 129C]  Beet Armyworm (BAW) (Spodoptera exigua)       50 to 100%
11  Cc1cccc(C)c1/N=C(/N/N=C/c1ccc(-c2ncn(-c3ccc(OC(F)(F)F)cc3)n2)cc1)SCc1ccccc1F [Compound 11C]  Beet Armyworm (BAW) (Spodoptera exigua)       50 to 100%
12  Cc1cccc(C)c1/N=C(/N/N=C/c1ccc(-c2ncn(-c3ccc(OC(F)(F)F)cc3)n2)cc1)SCc1ccc(S(=O)(=O)Nc2ccc(F)cc2)cc1 [Compound 18C]  Beet Armyworm (BAW) (Spodoptera exigua)       50 to 100%
13  Cc1cccc(C)c1-n1c(-c2cc(-c3ccc(Cl)cc3)no2)cs/c1=N\N=C\c1ccc(-c2ncn(-c3ccc(OC(F)(F)F)cc3)n2)cc1 [Compound 76C]  Beet Armyworm (BAW) (Spodoptera exigua)       50 to 100%
14  CC(C)=Cc1ccccc1N1CCS/C1=N\N=C\c1ccc(-c2ncn(-c3ccc(OC(F)(F)F)cc3)n2)cc1 [Compound 151C]  Beet Armyworm (BAW) (Spodoptera exigua)       50 to 100%
15  Cc1cccc(C)c1/N=C(/N/N=C/c1ccc(-c2ncn(-c3ccc(OC(F)(F)F)cc3)n2)cc1)SCC(=O)O [Compound 47C]  Beet Armyworm (BAW) (Spodoptera exigua)       50 to 100%
16  CC(C)c1ccccc1N1/C(=N/N=C/c2ccc(-c3ncn(-c4ccc(OC(F)(F)F)cc4)n3)cc2)SCC1C (racemic) [Compound 155C]  Beet Armyworm (BAW) (Spodoptera exigua)       50 to 100%
17  Cc1cccc(C)c1/N=C(/N/N=C/c1ccc(-c2ncn(-c3ccc(OC(F)(F)F)cc3)n2)cc1)SCC(=O)NCCCN [Compound 66C]  Beet Armyworm (BAW) (Spodoptera exigua)       50 to 100%
18  CCS/C(=N\c1c(Cl)cccc1Cl)N/N=C/c1ccc(-c2ncn(-c3ccc(OC(F)(F)F)cc3)n2)cc1  Beet Armyworm (BAW) (Spodoptera exigua)       50 to 100%
19  CC(C)c1ccccc1N1CS/C1=N\N=C\c1ccc(-c2ncn(-c3ccc4c(c3)OC(F)(F)O4)n2)cc1 [Compound 249C]  Beet Armyworm (BAW) (Spodoptera exigua)       50 to 100%
20  Cc1cccc(C)c1/N=C(/N/N=C/c1ccc(-c2ncn(-c3ccc(OC(F)(F)F)cc3)n2)cc1)SCc1ocnc1-c1ccccc1 [Compound 15C]  Beet Armyworm (BAW) (Spodoptera exigua)       50 to 100%
21  Cc1cccc(C)c1/N=C(/N/N=C/c1ccc(-c2ncn(-c3ccc(OC(F)(F)F)cc3)n2)cc1)SCC(=O)NC[C@@H]1CCCNC1 [Compound 62C]  Beet Armyworm (BAW) (Spodoptera exigua)       50 to 100%
22  COc1ccc(N2/C(=N/N=C/c3ccc(-c4ncn(-c5ccc(OC(F)(F)F)cc5)n4)cc3)SCCC2C)c(C)c1 (stereo not shown) [Compound 219C]  Beet Armyworm (BAW) (Spodoptera exigua)       50 to 100%
23  CC(C)c1cc(F)ccc1N1CS/C1=N\N=C\c1ccc(-c2ncn(-c3ccc(C(F)(F)F)cc3)n2)cc1 [Compound 261C]  Beet Armyworm (BAW) (Spodoptera exigua)       50 to 100%
24  Cc1cccc(C)c1/N=C(/N/N=C/c1ccc(-c2ncn(-c3ccc(OC(F)(F)F)cc3)n2)cc1)SCC(=O)N1CCN(C(=O)OC(C)(C)C)CC1 [Compound 57C]  Beet Armyworm (BAW) (Spodoptera exigua)       50 to 100%
25  Cc1cccc(C)c1-n1c(-c2nccs2)cs/c1=N\N=C\c1ccc(-c2ncn(-c3ccc(OC(F)(F)F)cc3)n2)cc1 [Compound 75C]  Beet Armyworm (BAW) (Spodoptera exigua)       50 to 100%
